Target: human A2A AR (Homo sapiens, UniProt P29274)
Construct: expressed in transfected cells; host or cells: CHO cells
Sequence (P29274 whole entry): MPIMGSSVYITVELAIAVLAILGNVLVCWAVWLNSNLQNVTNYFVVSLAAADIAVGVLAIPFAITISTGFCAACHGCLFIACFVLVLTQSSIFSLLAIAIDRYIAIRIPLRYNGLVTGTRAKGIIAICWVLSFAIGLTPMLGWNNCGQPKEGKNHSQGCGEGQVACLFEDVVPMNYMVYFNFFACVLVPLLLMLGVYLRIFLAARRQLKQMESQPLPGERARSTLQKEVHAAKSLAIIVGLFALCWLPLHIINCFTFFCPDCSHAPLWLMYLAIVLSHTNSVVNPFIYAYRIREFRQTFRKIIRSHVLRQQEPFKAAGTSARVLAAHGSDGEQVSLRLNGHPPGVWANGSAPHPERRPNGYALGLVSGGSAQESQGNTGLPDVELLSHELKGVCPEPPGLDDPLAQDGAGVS
Experiment: Radioligand binding, displacement of [3H]-NECA at hA2A AR in CHO cells
Conditions: displacement of specific [3H]-NECA binding, CHO cells, mean ± SEM; read-out: hA2A Ki
pKi: −log10 of the molar value.
MEASURED PARAMETER: pKi

Nc1nc(-c2cccc(O)c2)nc2sc(Cc3ccccc3)nc12 | 8.14
Nc1nc(-c2ccccc2)nc2sc(Cc3ccccc3F)nc12 | 8.74
COc1ccccc1Cc1nc2c(N)nc(-c3cccc(O)c3)nc2s1 | 8.72
COc1ccccc1Cc1nc2c(N)nc(-c3ccccc3)nc2s1 | 9.15
Nc1nc(-c2ccco2)nc2sc(Cc3ccccc3)nc12 | 8.96
N#Cc1cccc(-c2nc(N)c3nc(Cc4ccccc4F)sc3n2)c1 | 8.85

A = N#Cc1cccc(-c2nc(N)c3nc(Cc4ccccc4)sc3n2)c1
B = COc1ccccc1Cc1nc2c(N)nc(-c3ccco3)nc2s1
// query Please state the entry with greater pKi among A and B . Field: selected label. Fill in the label of the entry you choose.
// result B
(B: 9.70, A: 8.34)

###

Target: hA3 AR (Homo sapiens, UniProt P0DMS8)
Sequence (P0DMS8 1-318): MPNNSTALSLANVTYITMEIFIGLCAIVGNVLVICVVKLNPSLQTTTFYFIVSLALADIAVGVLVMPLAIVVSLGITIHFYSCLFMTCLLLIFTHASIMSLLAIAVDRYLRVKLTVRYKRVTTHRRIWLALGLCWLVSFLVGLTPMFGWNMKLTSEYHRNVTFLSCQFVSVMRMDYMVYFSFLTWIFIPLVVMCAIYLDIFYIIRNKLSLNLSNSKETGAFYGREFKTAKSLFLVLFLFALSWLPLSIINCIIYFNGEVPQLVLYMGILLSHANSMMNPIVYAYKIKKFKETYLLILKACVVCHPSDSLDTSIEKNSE
Test: Radioligand binding, displacement of [3H]-HEMADO at hA3 AR in CHO cells
Details: displacement of specific [3H]-HEMADO binding, mean ± SEM
pKi: −log10 of the molar value.
MEASURED PARAMETER: pKi

Cc1ccc(-c2nc(N)c3nc(Cc4ccccc4Cl)sc3n2)o1 | 8.07
COc1ccccc1Cc1nc2c(N)nc(-c3ccco3)nc2s1 | 7.31
Nc1nc(-c2ccco2)nc2sc(Cc3ccccc3)nc12 | 7.18

a = Nc1nc(-c2ccccc2)nc2sc(Cc3ccccc3)nc12
b = N#Cc1cccc(-c2nc(N)c3nc(Cc4ccccc4F)sc3n2)c1
// query Please state the entry with greater pKi among a and b . Field: selected label. Fill in the label of the entry you choose.
// result a
(a: 7.58, b: 7.02)

a = Nc1nc(-c2ccccc2)nc2sc(Cc3ccccc3Cl)nc12
b = COc1ccccc1Cc1nc2c(N)nc(-c3ccccc3)nc2s1
c = Nc1nc(-c2ccco2)nc2sc(Cc3ccccc3Cl)nc12
// query List by increasing pKi. // rank by listing labels in the order requested
// result c, a, b

P = Cc1ccc(-c2nc(N)c3nc(Cc4ccccc4)sc3n2)o1
Q = N#Cc1cccc(-c2nc(N)c3nc(Cc4ccccc4Cl)sc3n2)c1
// query Please state the entry with greater pKi among P and Q . Field: selected label. Fill in the label of the entry you choose.
// result P
(P: 7.73, Q: 6.53)

P = COc1ccccc1Cc1nc2c(N)nc(-c3ccc(C)o3)nc2s1
Q = Nc1nc(-c2ccccc2)nc2sc(Cc3ccccc3F)nc12
R = Nc1nc(-c2cccc(O)c2)nc2sc(Cc3ccccc3F)nc12
// query Order the records by pKi, with each subsequent value no larger than the one before. // rank by listing labels in the order requested
// result P, Q, R
(P: 7.74, Q: 7.14, R: 6.34)

###

Biological target: UniProtKB P30542
Sequence (P30542 1-326): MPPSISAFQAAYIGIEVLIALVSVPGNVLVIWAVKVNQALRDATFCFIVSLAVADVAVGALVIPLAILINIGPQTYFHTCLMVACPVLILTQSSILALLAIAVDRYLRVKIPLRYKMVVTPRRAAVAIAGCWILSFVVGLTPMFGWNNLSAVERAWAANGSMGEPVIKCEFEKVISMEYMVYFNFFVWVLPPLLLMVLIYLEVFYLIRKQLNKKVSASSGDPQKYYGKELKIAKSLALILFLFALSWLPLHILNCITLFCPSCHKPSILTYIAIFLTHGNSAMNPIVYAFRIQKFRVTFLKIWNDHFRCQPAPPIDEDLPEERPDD
Assay: Radioligand binding, displacement of [3H]-CCPA at hA1 AR in CHO cells
Settings: displacement of specific [3H]-CCPA binding, n = 3–6, mean ± SEM
pKi: −log10 of the molar value.
MEASURED PARAMETER: pKi

The following compounds have reported results that may help.
N#Cc1cccc(-c2nc(N)c3nc(Cc4ccccc4Cl)sc3n2)c1 | 7.14
Nc1nc(-c2cccc(O)c2)nc2sc(Cc3ccccc3F)nc12 | 9.30

P = Nc1nc(-c2ccco2)nc2sc(Cc3ccccc3)nc12
Q = Nc1nc(-c2ccco2)nc2sc(Cc3ccccc3Cl)nc12
R = Nc1nc(-c2ccccc2)nc2sc(Cc3ccccc3F)nc12
// query List by increasing pKi. // rank by listing labels in the order requested
// result P, Q, R
(P: 7.81, Q: 8.42, R: 8.72)

###

Target: hA2A AR (Homo sapiens, UniProt P29274)
Sequence (P29274 whole entry): as the sequence (P29274 whole entry) above
Experiment: Inhibition of NECA-induced increase of cAMP in CHO cells expressing hA2A AR (GloSensor cAMP assay)
Conditions: inhibition of NECA-stimulated adenylyl cyclase activity, mean ± standard error
MEASURED PARAMETER: IC50 (µM)

COc1ccccc1Cc1nc2c(N)nc(-c3ccco3)nc2s1 | 0.035
COc1ccccc1Cc1nc2c(N)nc(-c3ccccc3)nc2s1 | 0.125
Cc1ccc(-c2nc(N)c3nc(Cc4ccccc4Cl)sc3n2)o1 | 0.0077
Nc1nc(-c2ccco2)nc2sc(Cc3ccccc3Cl)nc12 | 0.039
Nc1nc(-c2ccco2)nc2sc(Cc3ccccc3F)nc12 | 0.014

I = Cc1ccc(-c2nc(N)c3nc(Cc4ccccc4F)sc3n2)o1
II = Cc1ccc(-c2nc(N)c3nc(Cc4ccccc4)sc3n2)o1
// query Please state the entry with greater IC50 among I and II . Field: selected label. Fill in the label of the entry you choose.
// result II
(II: 0.088 µM, I: 0.051 µM)

###

Target: human A1 AR (Homo sapiens, UniProt P30542)
Experiment: Radioligand binding, displacement of [3H]-CCPA at hA1 AR in CHO cells
Conditions: displacement of specific [3H]-CCPA binding, n = 3–6, mean ± SEM
MEASURED PARAMETER: Ki (nM)

The following compounds have reported results that may help.
Nc1nc(-c2cccc(O)c2)nc2sc(Cc3ccccc3)nc12 | 15.7
Cc1ccc(-c2nc(N)c3nc(Cc4ccccc4F)sc3n2)o1 | 5.7
Cc1ccc(-c2nc(N)c3nc(Cc4ccccc4)sc3n2)o1 | 6.8

1 = COc1ccccc1Cc1nc2c(N)nc(-c3ccco3)nc2s1
2 = Cc1ccc(-c2nc(N)c3nc(Cc4ccccc4Cl)sc3n2)o1
3 = N#Cc1cccc(-c2nc(N)c3nc(Cc4ccccc4F)sc3n2)c1
4 = N#Cc1cccc(-c2nc(N)c3nc(Cc4ccccc4)sc3n2)c1
// query List by increasing Ki. // rank by listing labels in the order requested
// result 2, 1, 3, 4
(2: 0.5 nM, 1: 2.4 nM, 3: 21.5 nM, 4: 51.7 nM)

P = COc1ccccc1Cc1nc2c(N)nc(-c3cccc(C#N)c3)nc2s1
Q = COc1ccccc1Cc1nc2c(N)nc(-c3ccccc3)nc2s1
// query Please state the entry with greater Ki among P and Q . Field: selected label. Fill in the label of the entry you choose.
// result P
(P: 28.4 nM, Q: 4.5 nM)

###

Biological target: human A2A AR (Homo sapiens)
Construct: expressed in transfected cells; host or cells: CHO cells
Test: Radioligand binding, displacement of [3H]-NECA at hA2A AR in CHO cells;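 note: competition binding on membranes from CHO cells stably transfected with human A2A receptor, binding curves fitted by nonlinear regression in GraphPad Prism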
Details: hA2A AR, as listed in Table 3; read-out: pKi A2A (converted)
MEASURED PARAMETER: Ki (nM)

Nc1nc(-c2ccccc2)nc2sc(Cc3ccccc3F)nc12 [compound 15] | 1.78
Nc1nc(-c2ccco2)nc2sc(Cc3ccccc3F)nc12 [compound 18] | 0.0646

P = Nc1nc(-c2ccco2)nc2sc(Cc3ccccc3)nc12 [compound 4]
Q = Cc1ccc(-c2nc(N)c3nc(Cc4ccccc4Cl)sc3n2)o1 [compound 9]
// query Please state the entry with greater Ki among P and Q . Field: selected label. Fill in the label of the entry you choose.
// result P

A = Nc1nc(-c2ccccc2)nc2sc(Cc3ccccc3)nc12 [compound 1]
B = Nc1nc(-c2ccco2)nc2sc(Cc3ccccc3Cl)nc12 [compound 8]
C = Nc1nc(-c2ccccc2)nc2sc(Cc3ccccc3Cl)nc12 [compound 6]
D = Cc1ccc(-c2nc(N)c3nc(Cc4ccccc4)sc3n2)o1 [compound 5]
// query Order the records by Ki, with each subsequent value no larger than the one before. // rank by listing labels in the order requested
// result A, D, C, B
(A: 2.82 nM, D: 0.794 nM, C: 0.398 nM, B: 0.2 nM)

Data provenance is paper PMC8308585.
